src = ChEMBL document CHEMBL1135850

In what follows, each item is paired with its Ki for NS3 (Hepatitis C virus, UniProt A3EZJ3).
Numeric only. Scale: nM

* CC(C)[C@H](NC(=O)[C@H](CCC(=O)O)NC(=O)[C@@H](N)CC(=O)O)C(=O)N[C@H](C(=O)N1CCC[C@H]1C(=O)N[C@@H](CCc1ccc(C2CCCCC2)cc1)B1O[C@@H]2C[C@@H]3C[C@@H](C3(C)C)[C@]2(C)O1)C(C)C | 3

Now for the molecule whose Ki we want.
Recorded Ki for COc1ccc(CC[C@H](NC(=O)[C@@H]2CCCN2C(=O)[C@@H](NC(=O)[C@@H](NC(=O)[C@H](CCC(=O)O)NC(=O)[C@@H](N)CC(=O)O)C(C)C)C(C)C)B2O[C@@H]3C[C@@H]4C[C@@H](C4(C)C)[C@]3(C)O2)cc1 , please?
3
